assay: antimalarial activity against Dd2 strain (AID 2302);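 note: 0% = DMSO untreated growth and 100% = chloroquine plus artemisinin killed control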; details: P. falciparum Dd2 in RBCs, LDH growth readout, 72 h; at 2 µM; hits give high values

Compound	growth inhibition [%]
Cn1cc(CN2CCCC(COC(c3ccccc3)c3ccccc3)C2)cn1 (centres undefined)	99
N#Cc1ccc(N2CCN(Cc3ccc(-c4ccc(-c5nc6ccc(F)cc6[nH]5)s4)cc3)CC2)nc1	78
O=C(NC1CCN(c2ccnc3cc(Cl)ccc23)C1)c1ccc(C(F)(F)F)cc1 (centres undefined)	57
COc1ccc2nccc([C@@H](O)CN3CCC(NS(=O)(=O)c4cc(Br)c(Br)s4)CC3)c2c1	36
N=C(N)c1cc(Br)cc(NC(=O)Nc2cc(Br)cc(C(=N)N)c2)c1	76
O=C(Nc1ccccc1)N(Cc1ccc(-c2cccc(CNC3CCCC3)c2)cc1)C1CCN(Cc2ccccc2)CC1	67
COc1ccc(Oc2ccc(-c3c(C)[nH]c(C)c(Cl)c3=O)cc2)cc1	97
N#Cc1ccc(Sc2nnc(-c3ccccc3Cl)n2CC2CCCCC2)cc1[N+](=O)[O-]	34
CCn1c(Sc2ccc(C#N)c([N+](=O)[O-])c2)nnc1-c1ccc(Cl)cc1	93

###

assay: inhibition of 3D7 malaria parasite growth – strain 3D7 (AID 2306);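 note: 0% = DMSO wells and 100% = chloroquine plus artemisinin control wells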; conditions: P. falciparum 3D7 erythrocytic growth, LDH absorbance, 72 h; at 2 µM; hits give high values
Known growth inhibition of a selection of molecules

Molecule	growth inhibition (%)
CCNc1cc(C(=O)N[C@@H](Cc2cc(F)cc(F)c2)[C@H](O)CNCc2cccc(C(F)(F)F)c2)cc(N2CCCCS2(=O)=O)c1	99
FC(F)(F)c1ccc2nc(-c3ccc(-c4ccc(CNCCN5CCNCC5)cc4)s3)[nH]c2c1	94
CN(C)c1ccc(CN2CCC(NC(=O)c3ccc(-c4cccc(C(F)(F)F)c4)s3)CC2)cc1	97
COc1cccc(C(=O)[C@H]2C[C@@H]2CN(C)CCC(O)c2ccc(Cl)c(Cl)c2)c1 (stereo partly drawn)	99
O=S(=O)(Nc1cc2c(cc1O)CCN(C1CCC1)CC2)c1ccc(Oc2ccc(F)cc2)cc1	99
COc1ccc(CNCc2ccc(-c3cccc(-c4nc5ccc(F)cc5[nH]4)c3)cc2)cc1	102
CCOc1ccccc1NC(=O)C(Sc1nc(C)cc(C)c1C#N)c1ccccc1 (stereo not drawn)	99
CCn1cnc2c(N3CCCS3(=O)=O)cc(C(=O)N[C@@H](Cc3ccccc3)[C@H](O)CNC(C)(C)c3cccc(C(F)(F)F)c3)cc21	99
COC(=O)c1cccc(CNCc2cccc(-c3cccc(-c4nc5ccc(C(F)(F)F)cc5[nH]4)c3)c2)c1	102
N#Cc1ccc2[nH]cc(-c3cn4cc(SC5CCCC5)ccc4n3)c2c1	92
COc1cccc(CNC(=O)NC2CCN(c3ccnc(Nc4cc(OC)c(OC)c(OC)c4)n3)C2)c1 (stereo not drawn)	93
CC(C)NCc1cccc(-c2ccc(NC(=O)c3ccc(F)cc3)cc2)c1	92
Cc1cc2c(cc1C(F)(F)F)N(C(=O)Nc1cc(C(=O)NCCN(C)C)cc(C(F)(F)F)c1)CC2	100
NCc1ccc(CNCc2cccc(-c3cccc(-c4nc5ccc(F)cc5[nH]4)c3)c2)cc1	101
CC(C)[C@@H](C(=O)NCc1cccc(C(F)(F)F)c1)N1C(=O)CCC1C(=O)Nc1ccc([N+](=O)[O-])cc1 (stereo partly drawn)	94
CN(c1ccc(NC(=O)c2cccc(F)c2)cc1)C1CCCN(Cc2cccc(O)c2)C1 (stereo not drawn)	85
Cc1cc(Nc2ccc3c(c2)CCC3)n2ncnc2n1	86
C[C@H](Cc1ccc(C(=O)OCCOC(=O)c2ccc(C[C@@H](C)NC[C@H](O)c3cccc(C(F)(F)F)c3)cc2)cc1)NC[C@H](O)c1cccc(C(F)(F)F)c1	98

###

experiment: antimalarial activity against Dd2 strain (AID 2302);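 note: 0% = DMSO untreated growth and 100% = chloroquine plus artemisinin killed control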; settings: P. falciparum Dd2 in RBCs, LDH growth readout, 72 h; at 2 µM; hits give high values

Molecule	growth inhibition, %
CC(=O)Nc1ccc(C(=O)Nc2cccc(-c3cccc(-c4nc5ccc(F)cc5[nH]4)c3)c2)cn1	98
CCN(CCN(C)C)Cc1ccc(-c2ccc(NS(=O)(=O)c3cccc4cccnc34)cc2)cc1	57
CCOc1ccc(Nc2cc(C)nc(Nc3ccc(OCC)cc3)n2)cc1	49
O=C(NCC(NCCCNc1cc(=O)c2ccccc2[nH]1)c1cc(Br)cc(Br)c1)C1=CCCC1 (centres undefined)	48
Brc1cc2c(cc1C=NNc1nc(Nc3ccccc3)nc(Nc3ccccc3)n1)OCO2	32
Cc1nc(C)n(CC(=O)Nc2cccc(-c3cccc(-c4nc5ccc(C(F)(F)F)cc5[nH]4)c3)c2)n1	96
COc1ccc(C(C(=O)NC2CCN(C[C@H](O)c3ccnc4ccc(OC)cc34)CC2)N2CCc3ccccc3C2)cc1 (some centres undefined)	30
CCOc1ccc(C(=O)Nc2cc3c(c(C(F)(F)F)c2)CCNC3)cc1Cl	1
COc1ccc2nccc([C@@H](O)CN3CCC(NCc4cc5cccc6c5n(c4=O)CCC6)CC3)c2c1	97
O=C(Nc1ccccc1Cc1ccccc1)c1ccccc1C(F)(F)F	85
Cc1c(Cc2ccccc2)c(=O)oc2c(C)c3c(cc12)CN(CC(C)c1ccccc1)CO3 (centres undefined)	98
CCCCCC(=O)N1CCOC(CCN2CCc3c(c4ccccc4n3C)C2)(c2ccc(Cl)c(Cl)c2)C1 (centres undefined)	80
CC(NC(=O)c1ccc(O)c(-c2ccc(Cl)c(Cl)c2)c1)C(=O)NCCN1CCOCC1 (centres undefined)	7
CN1CCN(CCCN(Cc2ccc(-c3ccc(CNCc4ccc5c(c4)OCO5)cc3)cc2)C(=O)CCC2CCCC2)CC1	85
Oc1ccccc1Nc1nc(NCc2ccco2)c2ccccc2n1	71
c1ccc2ncc(CNCCCCCCCCNCc3cnc4ccccc4c3)cc2c1	4
NCC1CCCN1Cc1ccc(-c2ccc(-c3nc4ccc(F)cc4[nH]3)cc2)cc1 (centres undefined)	100
CC(=O)N/N=C/[C@H](CCc1ccccc1)NC(=O)[C@H](CC(C)C)NC(=O)c1ccc(F)cc1	86
CCOc1cccc(C(=O)Nc2ccc(-c3nc4ccccc4[nH]3)cc2)c1	30

###

assay: inhibition of 3D7 malaria parasite growth – strain 3D7 (AID 2306);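 note: 0% = DMSO wells and 100% = chloroquine plus artemisinin control wells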; conditions: P. falciparum 3D7 erythrocytic growth, LDH absorbance, 72 h; at 2 µM; hits give high values

Molecule	growth inhibition / %
CCC1(C)N=C(N)N=C(N)N1c1ccc(Cl)cc1 (centres undefined)	95
O=C(c1cc(C(=O)Nc2ccccc2F)c(=O)n(-c2ccccc2F)c1)c1cc(Cl)ccc1O	98
Nc1nc(N)c2c(CCc3ccc(Cl)c(Cl)c3)cccc2n1	101
CC(C)C[C@@H](/C=N/N1CCOC1=O)NC(=O)[C@H](CC(C)C)NC(=O)c1ccc(F)cc1	85
CC(=O)Nc1cc(C(=O)Nc2cccc(-c3csc(-c4nc5ccccc5[nH]4)c3)c2)ccc1C	94
COC(=O)c1ccc(CCC(C)NCC(O)c2cccc(Cl)c2)cc1 (centres undefined)	100
CO/C(=C\C=C\c1cc2cc(Cl)c(Cl)cc2[nH]1)C(=O)NCCCN1CCC(c2ccccc2)CC1	100
NC(N)=NCCCN(Cc1ccccc1)c1ccccc1	100
CCCCCCNC(=O)C1Cc2c([nH]c3cc(Cl)ccc23)C2(CCN(CCC)CC2)N1 (centres undefined)	92
CCCCCCCCCN1CC[C@@H](CCCc2ccnc3ccc(O)cc23)[C@@H](CC)C1	83
CCc1cn2c3c(cc(C(=O)N[C@@H](Cc4cccc(Cl)c4)[C@H](O)CNC4CC4)cc13)N(C)S(=O)(=O)CC2	98
CC(CN1CCN(C)CC1)C(=O)Nc1cccc(-c2ccc(-c3nc4ccc(C(F)(F)F)cc4[nH]3)cc2)c1 (centres undefined)	101
O=C(NCc1ccccc1)Nc1ccc(-c2ccc(-c3nc4ccc(C(F)(F)F)cc4[nH]3)cc2)cc1	99
Cc1ccc(NC(C)C(=O)Nc2ccc(C#N)cc2)cc1S(=O)(=O)N1CCCCC1 (centres undefined)	92
Cc1ccc(/C=C/C(=O)NCCCCCN2CCN(C(=O)Nc3ccc(Cl)c(C(F)(F)F)c3)CC2)cc1	93
Fc1cc(Cl)ccc1Nc1ccnc2cc(I)ccc12	90
CCOC(=O)CNC(=O)N(CCN(Cc1ccccc1)C(=O)NCC(=O)OCC)Cc1ccccc1	98
Cc1cc(N2CCCC2=O)ccc1-c1ccc(C(=O)N2CCC(Oc3cccc(Cl)c3)CC2)cc1	99
O=C(Nc1ccc(Cl)cc1)Nc1cccc(-c2ccc(-c3nc4ccccc4[nH]3)cc2)c1	87

###

experiment: human hepatoma cell viability loss – ATP luminescence, cytotoxicity control for P. falciparum antimalarial project, primary screen (AID 2303); conditions: HepG2 viability, 24-48 h, at 10 µM, hits give high values;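 note: 0% = DMSO wells and 100% = digitonin-killed cells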
Known inhibition of a selection of molecules

Molecular String	U	inhibition
Fc1ccc2c(NN=Cc3ccc(Cl)cc3)ccnc2c1	%	7
CS(=O)(=O)c1ccc(CNCc2ccc(-c3ccc(-c4nc5ccc(F)cc5[nH]4)s3)cc2)cc1	%	22
C[C@H]1CN(Cc2cccc(-c3cc(CNC(=O)c4cccc(CC5CCN(C)CC5)c4)ccc3F)c2)CCN1C	%	42
O=C(/C=C/c1ccc(Cl)c(Cl)c1)NCCCCCCN1CCCN(C(=O)Nc2ccc(C(F)(F)F)cc2)CC1	%	47
COc1ccc2nccc([C@@H](O)CN3CCC(NCc4nc5c(C#N)cccc5[nH]4)CC3)c2c1	%	-3
